Test system: Aphis craccivora
protocol-details: Insecticidal activity against Aphis craccivora (cowpea aphid) infested tender soybean shoots exposed to 100 mg/kg test compound solution assessed as insect mortality measured 24 hr post compound treatment
Type: functional
assay-readout: mortality at 100 mg/kg (%)

compound | assay-readout | measured-number
COC(Nc1c(SC)c(C#N)nn1-c1c(Cl)cc(C(F)(F)F)cc1Cl)C(Cl)(Cl)Cl (centres undefined) | mortality at 100 mg/kg | 100
CSc1c(C#N)nn(-c2c(Cl)cc(C(F)(F)F)cc2Cl)c1NC(OCCCl)C(Cl)(Cl)Cl (centres undefined) | mortality at 100 mg/kg | 100
CC[S+]([O-])c1c(C#N)nn(-c2c(Cl)cc(C(F)(F)F)cc2Cl)c1N (centres undefined) | mortality at 100 mg/kg | 100
C[S+]([O-])c1c(C#N)nn(-c2c(Cl)cc(C(F)(F)F)cc2Cl)c1NC(OCCF)C(Cl)(Cl)Cl (stereo in doubt; 7d-2) | mortality at 100 mg/kg | 100
